test: rescue of nicotinamide-shortened yeast lifespan – S. cerevisiae, OD615, primary screen (AID 775); conditions: S. cerevisiae growth with nicotinamide, at 10 µM, deaD strain in restrictive glucose medium
The whole screen tested about 130,000 compounds, of which about 900 (0.69%) were called active.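 The calls were made as follows: active = inhibition above a set limit, placed 3 SD over the median of all compounds (cut at about 26% in these data); inactive = the rest.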 The entries come from a sample that favours actives as a whole.
Hello, when you answer, please use one of the following outcomes: active, inactive

Recorded results for 3 compounds are shown here.
Compound | Group
O=C(Nc1ccc2ccccc2c1)/C(=C/c1cccc(Br)c1)NC(=O)c1ccco1 | inactive
O=C(COC(=O)c1cc(=O)[nH]c2ccccc12)Nc1nc(-c2cccc(Br)c2)cs1 | inactive
CCOc1ccc2nc(C(=O)N3CCCC(C)C3)sc2c1 (centres undefined) | inactive

Identify the outcome logged in this assay for the compound shown: CSCc1ccc(C(=O)Nc2cc(C)cc(C)c2)cc1 inactive

Per the assay record, what outcome was assigned to Cc1cc(C)c(NC(=S)N2CCCC2C(=O)O)c(C)c1 (centres undefined) ? inactive

Can you look up the reported call for Cc1nccn1CC(=O)N/N=C/c1ccc(O)c(O)c1 for me? inactive

Entry CCCCN(C)c1ccc([N+](=O)[O-])cc1 : call = ? inactive

// outcome(item) with item = Cc1ccccc1C(OCCN(C)C)C1CCCCC1 (centres undefined) inactive

Status in this test for C/C(=N\c1nc2ccccc2n1C)c1cc(Cl)ccc1O ? inactive

Each compound tested received a call. Report the one for CCN(CC)CCn1c(/N=C/c2cc(Br)ccc2O)nc2ccccc21 . active

Name the outcome recorded for Cc1cc(C(=O)N/N=C/c2cc([N+](=O)[O-])cc(C)c2O)n[nH]1 in the assay. inactive

So what was the verdict on COc1ccc(NC(=O)COC(=O)c2ccc(NS(=O)(=O)/C=C/c3ccccc3)cc2)cc1 in this test? inactive

Could you kindly confirm the outcome this assay logged for COc1cc(C(=O)Nc2cc(C(F)(F)F)ccc2N2CCOCC2)ccc1O ? inactive

Dear all, I need the recorded test outcome for CCN(CC)S(=O)(=O)c1cccc(-c2n[nH]c(=S)n2/N=C/c2ccc(C(=O)OC)cc2)c1 , thank you. inactive

Measured values drawn from PubChem BioAssay AID775 for this set.
